Recorded values, source patent US8003660B2.

- Target System: M1 muscarinic receptor (Homo sapiens, UniProt P11229)
- Sequence (P11229 1-460): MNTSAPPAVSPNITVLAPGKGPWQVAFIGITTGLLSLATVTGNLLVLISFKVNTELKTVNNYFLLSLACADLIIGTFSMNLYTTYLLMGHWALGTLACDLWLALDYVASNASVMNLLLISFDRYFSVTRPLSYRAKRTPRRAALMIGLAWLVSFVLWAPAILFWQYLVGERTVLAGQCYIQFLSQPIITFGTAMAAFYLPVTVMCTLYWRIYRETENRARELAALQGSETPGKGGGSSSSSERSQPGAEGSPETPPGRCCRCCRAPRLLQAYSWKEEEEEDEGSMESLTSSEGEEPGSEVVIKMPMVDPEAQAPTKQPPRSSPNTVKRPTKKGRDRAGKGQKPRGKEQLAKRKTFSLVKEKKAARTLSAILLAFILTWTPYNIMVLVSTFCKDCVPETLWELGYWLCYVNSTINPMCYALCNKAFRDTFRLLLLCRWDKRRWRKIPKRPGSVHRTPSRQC
- Assay Overview: Functional mobilization of intracellular calcium (FLIPR) in CHO cells expressing M1
- Condition Parameters: CHO cells expressing M1, FLIPR calcium
pEC50: −log10 of the molar value.
Observation Type: pEC50

Past entries and their recorded results:
Ask: Query for M1 muscarinic receptor (Homo sapiens, UniProt P11229): what pEC50 does the record show for CCOCCC(=O)N[C@@H]1CCC2(CCN(CCC(C)(C)C)CC2)c2ccccc21 ?
Result: > 5.70

Ask: Then CCN(C(=O)Cc1cccnc1)[C@H]1CCC2(CCN(CCC(C)(C)C)CC2)c2ccccc21 ?
Result: 5.30 to 5.70

Ask: Then CC(C)(C)CCN1CCC2(CC[C@H](NC(=O)CC3CCCC3=O)c3ccc(F)cc32)CC1 (stereo partly shown) ?
Result: > 5.70

Ask: Then CC(=O)N(C)CCC(=O)N[C@H]1CCC2(CCN(CCC(C)(C)C)CC2)c2ccccc21 ?
Result: > 5.70

Ask: Then CCn1cc(C(=O)N[C@H]2CCC3(CCN(CCC(C)(C)C)CC3)c3ccccc32)cn1 [compound 69] ?
Result: < 5.30

***
Ask: Query for M1 muscarinic receptor (Homo sapiens, UniProt P11229): what pEC50 does the record show for CCN(C(=O)CCC(F)(F)F)[C@H]1CCC2(CCN(CCC(C)(C)C)CC2)c2ccccc21 ?
Result: < 5.30

Ask: Then CCOCC(=O)N(CC)[C@H]1CCC2(CCN(CCC(C)(C)C)CC2)c2ccccc21 ?
Result: 5.30 to 5.70
